Reported values of total protein half-life in vivo for individual entries
# assayProtocol: total protein half-life in vivo (active degradation + dilution); higher = more stable protein
# studyConditions: wild type E. coli NCM3722; growth: C-lim chemostat; doubling time 3 h
endpoint: total protein half-life in vivo (h)

[
  {
    "residueString": "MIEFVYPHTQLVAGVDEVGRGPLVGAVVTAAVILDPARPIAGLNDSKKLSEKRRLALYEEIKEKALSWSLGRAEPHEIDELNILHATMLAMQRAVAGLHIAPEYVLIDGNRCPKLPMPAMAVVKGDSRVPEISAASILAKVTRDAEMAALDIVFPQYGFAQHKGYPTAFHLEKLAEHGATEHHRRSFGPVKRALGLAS",
    "experimentalValue": 1.7
  },
  {
    "residueString": "MILTDPEWQAVLLSLKVSSLAVLFSLPFGIFFAWLLVRCTFPGKALLDSVLHLPLVLPPVVVGYLLLVSMGRRGFIGERLYDWFGITFAFSWRGAVLAAAVMSFPLMVRAIRLALEGVDVKLEQAARTLGAGRWRVFFTITLPLTLPGIIVGTVLAFARSLGEFGATITFVSNIPGETRTIPSAMYTLIQTPGGESGAARLCIISIALAMISLLISEWLARISRERAGR [P0AF01]",
    "experimentalValue": 3.03
  },
  {
    "residueString": "MIKVLIVDDEPLARENLRVFLQEQSDIEIVGECSNAVEGIGAVHKLRPDVLFLDIQMPRISGLEMVGMLDPEHRPYIVFLTAFDEYAIKAFEEHAFDYLLKPIDEARLEKTLARLRQERSKQDVSLLPENQQALKFIPCTGHSRIYLLQMKDVAFVSSRMSGVYVTSHEGKEGFTELTLRTLESRTPLLRCHRQYLVNLAHLQEIRLEDNGQAELILRNGLTVPVSRRYLKSLKEAIGL [P0AFT5]",
    "experimentalValue": 3.04
  }
]

---

# assayProtocol: total protein half-life in vivo (active degradation + dilution); higher = more stable protein
# studyConditions: wild type E. coli NCM3722; growth: P-lim chemostat; doubling time 12 h

[
  {
    "residueString": "MTDKLTSLRQYTTVVADTGDIAAMKLYQPQDATTNPSLILNAAQIPEYRKLIDDAVAWAKQQSNDRAQQIVDATDKLAVNIGLEILKLVPGRISTEVDARLSYDTEASIAKAKRLIKLYNDAGISNDRILIKLASTWQGIRAAEQLEKEGINCNLTLLFSFAQARACAEAGVFLISPFVGRILDWYKANTDKKEYAPAEDPGVVSVSEIYQYYKEHGYETVVMGASFRNIGEILELAGCDRLTIAPALLKELAESEGAIERKLSYTGEVKARPARITESEFLWQHNQDPMAVDKLAEGIRKFAIDQEKLEKMIGDLL [P0A870]",
    "total protein half-life in vivo, h": 13.7
  },
  {
    "residueString": "MKYDLIIIGSGSVGAAAGYYATRAGLNVLMTDAHMPPHQHGSHHGDTRLIRHAYGEGEKYVPLVLRAQTLWDELSRHNEEDPIFVRSGVINLGPADSTFLANVAHSAEQWQLNVEKLDAQGIMARWPEIRVPDNYIGLFETDSGFLRSELAIKTWIQLAKEAGCAQLFNCPVTAIRHDDDGVTIETADGEYQAKKAIVCAGTWVKDLLPELPVQPVRKVFAWYQADGRYSVKNKFPAFTGELPNGDQYYGFPAENDALKIGKHNGGQVIHSADERVPFAEVASDGSEAFPFLRNVLPGIGCCLYGAACTYDNSPDEDFIIDTLPGHDNTLLITGLSGHGFKFASVLGEIAADFAQDKKSDFDLTPFRLSRFQ",
    "total protein half-life in vivo, h": 10.5
  },
  {
    "residueString": "MNSFNEGVVSPLLSFWRRSLMLAGALLLTACSHNSSLPPFTASGFAEDQGAVRIWRKDSGDNVHLLAVFSPWRSGDTTTREYRWQGDNLTLININVYSKPPVNIRARFDDRGDLSFMQRESDGEKQQLSNDQIDLYRYRADQIRQISDALRQGRVVLRQGRWHAMEQTVTTCEGQTIKPDLDSQAIAHIERRQSRSSVDVSVAWLEAPEGSQLLLVANSDFCRWQPNEKTF",
    "total protein half-life in vivo, h": 14.1
  }
]

---

# assayProtocol: total protein half-life in vivo (active degradation + dilution); higher = more stable protein
# studyConditions: E. coli NCM3722 delta-hslV; growth: N-lim chemostat; doubling time 6 h
The sequences listed here are annotated with their total protein half-life in vivo.
endpoint: total protein half-life in vivo (h)

[
  {
    "residueString": "MRVLIVKTSSMGDVLHTLPALTDAQQAIPGIKFDWVVEEGFAQIPSWHAAVERVIPVAIRRWRKAWFSAPIKAERKAFREALQAENYDAVIDAQGLVKSAALVTRLAHGVKHGMDWQTAREPLASLFYNRKHHIAKQQHAVERTRELFAKSLGYSKPQTQGDYAIAQHFLTNLPTDAGEYAVFLHATTRDDKHWPEEHWRELIGLLADSGIRIKLPWGAPHEEERAKRLAEGFAYVEVLPKMSLEGVARVLAGAKFVVSVDTGLSHLTAALDRPNITVYGPTDPGLIGGYGKNQMVCRAPRENLINLNSQAVLEKLSSL",
    "endpoint": "total protein half-life in vivo",
    "valueUnits": "h",
    "experimentalValue": 5.1
  },
  {
    "residueString": "MKQHQSADNSQGQLYIVPTPIGNLADITQRALEVLQAVDLIAAEDTRHTGLLLQHFGINARLFALHDHNEQQKAETLLAKLQEGQNIALVSDAGTPLINDPGYHLVRTCREAGIRVVPLPGPCAAITALSAAGLPSDRFCYEGFLPAKSKGRRDALKAIEAEPRTLIFYESTHRLLDSLEDIVAVLGESRYVVLARELTKTWETIHGAPVGELLAWVKEDENRRKGEMVLIVEGHKAQEEDLPADALRTLALLQAELPLKKAAALAAEIHGVKKNALYKYALEQQG",
    "endpoint": "total protein half-life in vivo",
    "valueUnits": "h",
    "experimentalValue": 5.85
  },
  {
    "residueString": "MMKNILAIQSHVVYGHAGNSAAEFPMRRLGANVWPLNTVQFSNHTQYGKWTGCVMPPSHLTEIVQGIAAIDKLHTCDAVLSGYLGSAEQGEHILGIVRQVKAANPQAKYFCDPVMGHPEKGCIVAPGVAEFHVRHGLPASDIIAPNLVELEILCEHAVNNVEEAVLAARELIAQGPQIVLVKHLARAGYSRDRFEMLLVTADEAWHISRPLVDFGMRQPVGVGDVTSGLLLVKLLQGATLQEALEHVTAAVYEIMVTTKAMQEYELQVVAAQDRIAKPEHYFSATKL",
    "endpoint": "total protein half-life in vivo",
    "valueUnits": "h",
    "experimentalValue": 2.01
  },
  {
    "residueString": "MSDTTELVDLAVIFPDLEIELKYACADNITGKAIYQQARCLLHKDAITALAKSISIAQLSGLQLVIYDAYRPQQAQAMLWQACPDPQYVVDVTVGSNHSRGTAIDLTLRDEHGNILDMGAGFDEMHERSHAYHPSVPPAAQRNRLLLNAIMTGGGFVGISSEWWHFELPQAASYPLLADQFSCFISPGTQHVS",
    "endpoint": "total protein half-life in vivo",
    "valueUnits": "h",
    "experimentalValue": 2.69
  },
  {
    "residueString": "MFAEYGVLNYWTYLVGAIFIVLVPGPNTLFVLKNSVSSGMKGGYLAACGVFIGDAVLMFLAWAGVATLIKTTPILFNIVRYLGAFYLLYLGSKILYATLKGKNSEAKSDEPQYGAIFKRALILSLTNPKAILFYVSFFVQFIDVNAPHTGISFFILAATLELVSFCYLSFLIISGAFVTQYIRTKKKLAKVGNSLIGLMFVGFAARLATLQS",
    "endpoint": "total protein half-life in vivo",
    "valueUnits": "h",
    "experimentalValue": 4.19
  },
  {
    "residueString": "MILIIYAHPYPHHSHANKRMLEQARTLEGVEIRSLYQLYPDFNIDIAAEQEALSRADLIVWQHPMQWYSIPPLLKLWIDKVFSHGWAYGHGGTALHGKHLLWAVTTGGGESHFEIGAHPGFDVLSQPLQATAIYCGLNWLPPFAMHCTFICDDETLEGQARHYKQRLLEWQEAHHG [P0A754]",
    "endpoint": "total protein half-life in vivo",
    "valueUnits": "h",
    "experimentalValue": 5.27
  }
]

---

# assayProtocol: total protein half-life in vivo (active degradation + dilution); higher = more stable protein
# studyConditions: wild type E. coli NCM3722; growth: N-lim chemostat; doubling time 6 h
Measured total protein half-life in vivo, listed per entry for reference.

[
  {
    "residueString": "MKTMLAAYLPGNSTVDLREVAVPTPGINQVLIKMKSSGICGSDVHYIYHQHRATAAAPDKPLYQGFINGHEPCGQIVAMGQGCRHFKEGDRVLVYHISGCGFCPNCRRGFPISCTGEGKAAYGWQRDGGHAEYLLAEEKDLILLPDALSYEDGAFISCGVGTAYEGILRGEVSGSDNVLVVGLGPVGMMAMMLAKGRGAKRIIGVDMLPERLAMAKQLGVMDHGYLATTEGLPQIIAELTHGGADVALDCSGNAAGRLLALQSTADWGRVVYIGETGKVEFEVSADLMHHQRRIIGSWVTSLFHMEKCAHDLTDWKLWPRNAITHRFSLEQAGDAYALMASGKCGKVVINFPD",
    "total protein half-life in vivo, h": 2.17
  },
  {
    "residueString": "MQFDWSAIWPAIPLLIEGAKMTLWISVLGLAGGLVIGLLAGFARTFGGWIANHVALVFIEVIRGTPIVVQVMFIYFALPMAFNDLRIDPFTAAVVTIMINSGAYIAEITRGAVLSIHKGFREAGLALGLSRWETIRYVILPLALRRMLPPLGNQWIISIKDTSLFIVIGVAELTRQGQEIIAGNFRALEIWSAVAVFYLIITLVLSFILRRLERRMKIL [P0AEQ6]",
    "total protein half-life in vivo, h": 6.75
  },
  {
    "residueString": "MKKNRAFLKWAGGKYPLLDDIKRHLPKGECLVEPFVGAGSVFLNTDFSRYILADINSDLISLYNIVKMRTDEYVQAARELFVPETNCAEVYYQFREEFNKSQDPFRRAVLFLYLNRYGYNGLCRYNLRGEFNVPFGRYKKPYFPEAELYHFAEKAQNAFFYCESYADSMARADDASVVYCDPPYAPLSATANFTAYHTNSFTLEQQAHLAEIAEGLVERHIPVLISNHDTMLTREWYQRAKLHVVKVRRSISSNGGTRKKVDELLALYKPGVVSPAKK [P0AEE8]",
    "total protein half-life in vivo, h": 4.65
  }
]

Origin of the recorded values: the supplement of paper PMC11246515
